The entries below come with measured half-life values attached.
test-method-notes: in vivo
condition-details: mouse, po, 100 mg/kg, T1/2
recorded-metric: half-life (h)

>  <compound>
C/C=C\C1=C(C(=O)O)N2C(=O)[C@@H](NC(=O)[C@H](N)c3ccc(O)c(O)c3)[C@H]2SC1

>  <measured-value>
2.5

$$$$
>  <compound>
N[C@@H](C(=O)N[C@@H]1C(=O)N2C(C(=O)O)=C(C=CCSc3cnn[nH]3)CS[C@H]12)c1ccc(O)cc1

>  <measured-value>
3.2

$$$$
>  <compound>
N[C@@H](C(=O)N[C@@H]1C(=O)N2C(C(=O)O)=C(/C=C\Cc3ccccc3)CS[C@H]12)c1ccc(O)cc1

>  <measured-value>
2.7

$$$$
>  <compound>
C/C=C\C1=C(C(=O)O)N2C(=O)[C@@H](NC(=O)[C@H](N)c3ccccc3)[C@H]2SC1

>  <measured-value>
1.1

$$$$
>  <compound>
C=CC1=C(C(=O)O)N2C(=O)[C@@H](NC(=O)[C@H](N)c3ccc(O)cc3)[C@H]2SC1

>  <measured-value>
1.2

$$$$
>  <compound>
COC/C=C\C1=C(C(=O)O)N2C(=O)[C@@H](NC(=O)[C@H](N)c3ccc(O)cc3)[C@H]2SC1

>  <measured-value>
1.7

$$$$
>  <compound>
C/C=C\C1=C(C(=O)O)N2C(=O)[C@@H](NC(=O)[C@H](N)c3ccc(O)c(Cl)c3)[C@H]2SC1

>  <measured-value>
1.7

$$$$

###

test-method-notes: in vivo
condition-details: mouse, po, 20 mg/kg, Cmax

>  <molecule>
COC/C=C\C1=C(C(=O)O)N2C(=O)[C@@H](NC(=O)[C@H](N)c3ccc(O)cc3)[C@H]2SC1 [Compound 17]

>  <Cmax / ng/mL>
18000

$$$$
>  <molecule>
C/C=C\C1=C(C(=O)O)N2C(=O)[C@@H](NC(=O)[C@H](N)c3ccc(O)c(O)c3)[C@H]2SC1 [Compound 37]

>  <Cmax / ng/mL>
58000

$$$$
>  <molecule>
N[C@@H](C(=O)N[C@@H]1C(=O)N2C(C(=O)O)=C(C=CCSc3cnn[nH]3)CS[C@H]12)c1ccc(O)cc1 [Compound 21]

>  <Cmax / ng/mL>
1700

$$$$
>  <molecule>
C/C=C/C1=C(C(=O)O)N2C(=O)[C@@H](NC(=O)[C@H](N)c3ccc(O)cc3)[C@H]2SC1 [Compound 8]

>  <Cmax / ng/mL>
10000

$$$$
>  <molecule>
CC1=C(C(=O)O)N2C(=O)[C@@H](NC(=O)[C@H](N)c3ccc(O)cc3)[C@H]2SC1 [Cefadroxil]

>  <Cmax / ng/mL>
12000

$$$$
>  <molecule>
C/C=C\C1=C(C(=O)O)N2C(=O)[C@@H](NC(=O)[C@H](N)c3ccccc3)[C@H]2SC1 [Compound 24]

>  <Cmax / ng/mL>
7800

$$$$
>  <molecule>
C/C=C\C1=C(C(=O)O)N2C(=O)[C@@H](NC(=O)[C@H](N)c3ccc(O)cc3)[C@H]2SC1 [Compound 9]

>  <Cmax / ng/mL>
15000

$$$$
>  <molecule>
C=CC1=C(C(=O)O)N2C(=O)[C@@H](NC(=O)[C@H](N)c3ccc(O)cc3)[C@H]2SC1 [Compound 11]

>  <Cmax / ng/mL>
11000

$$$$
>  <molecule>
N[C@@H](C(=O)N[C@@H]1C(=O)N2C(C(=O)O)=C(/C=C\Cc3ccccc3)CS[C@H]12)c1ccc(O)cc1 [Compound 15]

>  <Cmax / ng/mL>
12000

$$$$
>  <molecule>
CC/C=C\C1=C(C(=O)[O-])N2C(=O)[C@@H](NC(=O)[C@H](N)c3ccc(O)cc3)[C@H]2SC1.[Na+]

>  <Cmax / ng/mL>
13000

$$$$
>  <molecule>
C/C=C\C1=C(C(=O)O)N2C(=O)[C@@H](NC(=O)[C@H](N)c3ccc(O)c(Cl)c3)[C@H]2SC1 [Compound 32]

>  <Cmax / ng/mL>
7900

$$$$

###

test-method-notes: in vivo
condition-details: mouse, po, 100 mg/kg, AUC
recorded-metric: AUC

>  <molecule>
C/C=C\C1=C(C(=O)O)N2C(=O)[C@@H](NC(=O)[C@H](N)c3ccc(O)c(Cl)c3)[C@H]2SC1 [Compound 32]

>  <recorded-metric>
AUC

>  <measured-value>
37 µg·h/mL

$$$$
>  <molecule>
CC1=C(C(=O)O)N2C(=O)[C@@H](NC(=O)[C@H](N)c3ccc(O)cc3)[C@H]2SC1 [Cefadroxil]

>  <recorded-metric>
AUC

>  <measured-value>
103 µg·h/mL

$$$$
>  <molecule>
C/C=C\C1=C(C(=O)O)N2C(=O)[C@@H](NC(=O)[C@H](N)c3ccc(O)c(O)c3)[C@H]2SC1 [Compound 37]

>  <recorded-metric>
AUC

>  <measured-value>
666 µg·h/mL

$$$$
>  <molecule>
C/C=C\C1=C(C(=O)O)N2C(=O)[C@@H](NC(=O)[C@H](N)c3ccccc3)[C@H]2SC1 [Compound 24]

>  <recorded-metric>
AUC

>  <measured-value>
84 µg·h/mL

$$$$
>  <molecule>
C/C=C\C1=C(C(=O)O)N2C(=O)[C@@H](NC(=O)[C@H](N)c3ccc(O)cc3)[C@H]2SC1 [Compound 9]

>  <recorded-metric>
AUC

>  <measured-value>
106 µg·h/mL

$$$$
>  <molecule>
N[C@@H](C(=O)N[C@@H]1C(=O)N2C(C(=O)O)=C(C=CCSc3cnn[nH]3)CS[C@H]12)c1ccc(O)cc1 [Compound 21]

>  <recorded-metric>
AUC

>  <measured-value>
19 µg·h/mL

$$$$
>  <molecule>
CC/C=C\C1=C(C(=O)[O-])N2C(=O)[C@@H](NC(=O)[C@H](N)c3ccc(O)cc3)[C@H]2SC1.[Na+]

>  <recorded-metric>
AUC

>  <measured-value>
150 µg·h/mL

$$$$

###

System: N. meningitidis
test-method-notes: In vitro activity against Neisseria (MIC), N. meningitidis
Type: cell-based
condition-details: N. meningitidis A21487; Compound 9 lot 2
recorded-metric: MIC (µg/mL)

>  <compound>
C/C=C\C1=C(C(=O)O)N2C(=O)[C@@H](NC(=O)[C@H](N)c3ccc(O)cc3)[C@H]2SC1

>  <test-system>
N. meningitidis

>  <result-qualifier>
=

>  <measured-value>
0.8

$$$$
>  <compound>
N[C@@H](C(=O)N[C@@H]1C(=O)N2C(C(=O)O)=C(Cl)CS[C@H]12)c1ccccc1

>  <test-system>
N. meningitidis

>  <result-qualifier>
=

>  <measured-value>
0.8

$$$$
>  <compound>
N[C@@H](C(=O)N[C@@H]1C(=O)N2C(C(=O)O)=C(/C=C\Cc3ccccc3)CS[C@H]12)c1ccc(O)cc1

>  <test-system>
N. meningitidis

>  <result-qualifier>
>

>  <measured-value>
100

$$$$
>  <compound>
CC1=C(C(=O)O)N2C(=O)[C@@H](NC(=O)[C@H](N)c3ccc(O)cc3)[C@H]2SC1

>  <test-system>
N. meningitidis

>  <result-qualifier>
=

>  <measured-value>
6.3

$$$$

###

test-method-notes: in vivo
condition-details: mouse, po, 20 mg/kg, AUC*
For each record, check the reported AUC: if it is below 30000 ng·h/mL write True, else write False.

>  <molecule>
N[C@@H](C(=O)N[C@@H]1C(=O)N2C(C(=O)O)=C(C=CCSc3cnn[nH]3)CS[C@H]12)c1ccc(O)cc1 [Compound 21]

>  <group-label>
True

$$$$
>  <molecule>
C/C=C\C1=C(C(=O)O)N2C(=O)[C@@H](NC(=O)[C@H](N)c3ccc(O)c(Cl)c3)[C@H]2SC1 [Compound 32]

>  <group-label>
True

$$$$
>  <molecule>
C/C=C\C1=C(C(=O)O)N2C(=O)[C@@H](NC(=O)[C@H](N)c3ccccc3)[C@H]2SC1 [Compound 24]

>  <group-label>
True

$$$$
>  <molecule>
N[C@@H](C(=O)N[C@@H]1C(=O)N2C(C(=O)O)=C(/C=C\Cc3ccccc3)CS[C@H]12)c1ccc(O)cc1 [Compound 15]

>  <group-label>
False

$$$$
>  <molecule>
CC1=C(C(=O)O)N2C(=O)[C@@H](NC(=O)[C@H](N)c3ccc(O)cc3)[C@H]2SC1 [Cefadroxil]

>  <group-label>
True

$$$$
>  <molecule>
C/C=C/C1=C(C(=O)O)N2C(=O)[C@@H](NC(=O)[C@H](N)c3ccc(O)cc3)[C@H]2SC1 [Compound 8]

>  <group-label>
True

$$$$
>  <molecule>
COC/C=C\C1=C(C(=O)O)N2C(=O)[C@@H](NC(=O)[C@H](N)c3ccc(O)cc3)[C@H]2SC1 [Compound 17]

>  <group-label>
True

$$$$
>  <molecule>
C=CC1=C(C(=O)O)N2C(=O)[C@@H](NC(=O)[C@H](N)c3ccc(O)cc3)[C@H]2SC1 [Compound 11]

>  <group-label>
True

$$$$
>  <molecule>
C/C=C\C1=C(C(=O)O)N2C(=O)[C@@H](NC(=O)[C@H](N)c3ccc(O)cc3)[C@H]2SC1 [Compound 9]

>  <group-label>
True

$$$$
>  <molecule>
C/C=C\C1=C(C(=O)O)N2C(=O)[C@@H](NC(=O)[C@H](N)c3ccc(O)c(O)c3)[C@H]2SC1 [Compound 37]

>  <group-label>
False

$$$$
